Collected IC50 [µg/mL] pseudotyped lenti neutralization values appear next to each entry.
experimentalSystem: SARS-CoV-2 spike protein (on pseudovirus) (SARS-CoV-2, UniProt P0DTC2 14-1273)
methodSummary: cell-based or functional assay
recordedEndpoint: IC50 [µg/mL] pseudotyped lenti neutralization

binder: COVID19_P01_H07 (scFv, V domains shown) VH: QVQLVQSGAEVKKPGSSVKVSCKASGYSFNNYDLHWVRQAPGQGLEWMGGIIPIFDTANYAQKFQGRVTITADESTSTAYMELSSLRSEDTAVYYCALETVMGGMVKWGQGTLVTVSS VL: SSYVLTQPPSVSVAPGKTARITCGGNNIGSKSVHWYQQKPGQAPVLVIYYDSDRPSGIPERFSGSNSGNTATLTISRIEAGDEADYYCQVWDSSGDYVFGGGTKLTVLA
observedMeasurement: 6.5 µg/mL
--
binder: COVID19_P01_H05 (scFv, V domains shown) VH: QVQLVQSGAEVKKPGSSVKVSCKASGGTFSNFALTWVRQAPGQGLEWMGLINPSGGSTSYAQRFQGRVTITADESTSTAYMELSSLRSEDTAVYYCARDSVMGGMDVWGQGTLVTVSS VL: SSYVLTQPPSVSVAPGKTARITCGGNNIGSKSVHWYQQKPGQAPVLVIYYDSDRPSGIPERFSGSNSGNTATLTISRVEAGDEADYYCQVWASSSDYVFGGGTKLTVLA
observedMeasurement: 35 µg/mL
--
binder: COVID19_P01_H06 (scFv, V domains shown) VH: QVQLVQSGAEVKKPGSSVKVSCKASGYTFTSYYMHWVRQAPGQGLEWMGLIDPSGGTTSYAQKFQGRVTITADESTSTAYMELSSLRSEDTAVYYCVWDTVMGGMDVWGQGTLVTVSS VL: SYVLTQPPSVSVAPGKTAARITCGGNNIGSKSVHWYQQKPGQAPVLVIYKDGERPSGIPERFSGSNSRNTATLTISRVEAGDEADYYCQVWDSSSLYVFGGGTKLTVLA
observedMeasurement: 2.1 µg/mL
--
binder: COVID19_P13_H07 (scFv, V domains shown) VH: QVQLVQSGAEVKKPGSSVKVSCKASGYTFINYDINWVRQAPGQGLEWMGGITPIFGTAKYAQKFQGRVTITADESTSTAYMELSSLRSEDTAVYYCARDTVMGGMDVWGQGTLVTVSS VL: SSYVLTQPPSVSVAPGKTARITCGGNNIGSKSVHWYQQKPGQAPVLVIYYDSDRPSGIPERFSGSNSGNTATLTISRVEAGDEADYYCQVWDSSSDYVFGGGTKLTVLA
observedMeasurement: 15 µg/mL

Where do the numbers come from? From patent US20230272051A1.
